system: OCI-AML2; assay: cell viability relative to vehicle control; higher = less cytotoxic; settings: 10 µM; SRSF2 genotype: P95H/wt;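 note: after 48 h exposure read by CellTiter-Glo luminescence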
Decide using cell viability alone. Strictly below 80%: Met. Equal to or above 80%: Not met.

COMPOUND | CLASS_NAME
CCc1cc(C(N)=S)ccn1 [Ethionamide] | Not met
Oc1ccc(Cc2nc3c(Cc4ccccc4)nc(-c4ccc(O)cc4)cn3c2O)cc1 [Coelenterazine] | Not met
c1ccc(CNc2nc(NCc3ccccc3)c3ccccc3n2)cc1 | Met
CC(C)=CCC[C@](C)(O[C@@H]1O[C@H](CO[C@@H]2OC[C@H](O)[C@H](O)[C@H]2O)[C@@H](O)[C@H](O)[C@H]1O)[C@H]1CC[C@]2(C)[C@@H]1[C@H](O)C[C@@H]1[C@@]3(C)CC[C@H](O[C@@H]4O[C@H](CO)[C@@H](O)[C@H](O)[C@H]4O[C@@H]4O[C@H](CO)[C@@H](O)[C@H](O)[C@H]4O)C(C)(C)[C@@H]3CC[C@]12C [Ginsenoside Rb2] | Not met
CC1=C(C/C=C(\C)CCC[C@H](C)CCC[C@H](C)CCCC(C)C)C(=O)c2ccccc2C1=O [Vitamin K1] | Not met
O=C(O)c1ccc(Cl)cc1O [4-Chloro-2-hydroxybenzoic acid] | Not met

Every entry's value here was drawn from the supplement of paper PMC10981050.
